So I've got a bunch of compounds here, and I need their normalized growth values.
Assay: chemical genetic growth profiling, strain panel (AID 1159580);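 also: tested at 20 µM; growth read once vehicle control cultures reached saturation at 30 °C; 1 = growth at the plate median or of vehicle wells; lower values mean less growth of the strain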
Details: S. cerevisiae deletion strains, growth OD, locus YLR113W, strain HOG1, stronger effect = lower value
Screen size: about 5,500 compounds; about 2,000 (36%) were called active. Not shown: some 18% with an inconclusive outcome. This is one part of the list.
One number for each entry.

So, NC1=NCCN1CC(=O)O ? Its normalized growth was 0.983

So, CC(=O)O[C@H]1CC[C@@]2(C)C(C[C@@H](OC(C)=O)[C@@]3(C)C4=CC(=O)O[C@@H](c5ccoc5)[C@]4(C)CCC23)C1(C)C (some centres not stated) ? Its normalized growth was 0.966

So, CC12CCC3C(CC3(C)C)C(C)(CCC1=O)O2 (configuration not stated) ? Its normalized growth was 1.04

So, CCN1CCN(C(=O)NC(C(=O)N[C@@H]2C(=O)N3[C@@H]2SC(C)(C)[C@@H]3C(=O)O)c2ccccc2)C(=O)C1=O (some centres not stated) ? Its normalized growth was 0.987

So, O=C(Nc1ccc(F)cc1F)c1cc(Cl)c(-n2cccc2)c(Cl)c1 ? Its normalized growth was 0.788

Hey, can you go through the list below and give me normalized growth for every item?
1. CC(=O)Oc1cccc(O)c1
2. NCCCNCCCCNCCCN
3. CC(=O)OCC(=O)[C@@]1(O)[C@H](C)CC2C3CCC4=CC(=O)C=C[C@]4(C)[C@@]3(F)[C@@H](O)C[C@@]21C (some centres not stated)
4. CC1(C)CC2C1CC[C@]1(C)CCC3C(C(=O)O)CC(=O)O[C@@]32C1 (some centres not stated)
5. O=C(NCO)c1cccnc1
6. CC(C)=CC1C(C(=O)O)C1(C)C (configuration not stated)

1: 0.982; 2: 0.975; 3: 1.02; 4: 0.98; 5: 0.997; 6: 1.04

Hey, can you go through the list below and give me normalized growth for every item?
1. Nc1ccc(S(=O)(=O)NC(=O)c2ccccc2)cc1
2. CCC(C)C(=O)OC1[C@@H]2CC3=C4CC(=O)O[C@@H](c5ccoc5)[C@]4(C)CCC3[C@@](C)(C2=O)[C@@H](CC(=O)OC)C1(C)C (some centres not stated)
3. CC(=O)O[C@@H]1CC[C@@]2(C)C(C[C@@H](OC(C)=O)[C@@]3(C)C4=CC(=O)O[C@@H](c5ccoc5)[C@]4(C)CCC23)C1(C)C (some centres not stated)
4. CC(=O)N[C@@H](Cc1c[nH]c2ccccc12)C(N)=O
5. CC(=O)Oc1ccc(/C=C/c2cc(OC(C)=O)cc(OC(C)=O)c2)cc1
6. O=C(NOC(=O)c1ccccc1)c1ccccc1

0.968
1.03
0.981
1.01
0.934
0.138

Hey, can you go through the list below and give me normalized growth for every item?
1. O=C(O)c1ccc(S(=O)(=O)N(Cl)Cl)cc1
2. CC(Cc1cccc(C(F)(F)F)c1)NCCOC(=O)c1ccccc1 (configuration not stated)
3. CN(C)[C@@H]1C(=O)C(C(N)=O)=C(O)[C@@]2(O)C(=O)C3=C(O)c4c(O)ccc(Cl)c4[C@@](C)(O)[C@H]3C[C@@H]12
4. O=C(O)c1cccnc1
5. NS(=O)(=O)c1cc2c(cc1Cl)NC(CSCc1ccccc1)=NS2(=O)=O

[0.961, 1, 1.05, 0.995, 0.97]
